shrunken log2 fold change: recorded values
# Tested on: Escherichia coli TOP10;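 also: peptides expressed intracellularly from a pBAD plasmid library in pooled LB shake-flask culture, induced with 0.3% L-arabinose, DNA abundance read by NGS, three biological replicates, DESeq2 with apeglm shrinkage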
# test.details: shrunken log2 fold change of peptide-encoding DNA abundance (4.5 h post-induction vs induction); higher = less antimicrobial activity (less host growth inhibition)
# condition.summary: time post-induction: 4.5 h; library: site-saturation at positions 5, 18, 19, 20
Format: numeric value only, no unit, no commentary.

RRIRMRPPRLPRPRPRPNWFPRP | -0.607
RRIRYRPPRLPRPRPRPEPNPRP | -0.0357
RRIRVRPPRLPRPRPRPFLEPRP | 0.0733
RRIRIRPPRLPRPRPRPPFHPRP | -0.513
RRIRTRPPRLPRPRPRPNQPPRP | 0.0619

Query string: Give shrunken log2 fold change for the following sequence: RRIRLRPPRLPRPRPRPRHSPRP
Result string: 0.0207

Query string: Return the recorded shrunken log2 fold change value; entry: RRIRKRPPRLPRPRPRPQGPPRP
Result string: 0.053

Query string: Using known records, supply shrunken log2 fold change for RRIRQRPPRLPRPRPRPEGHPRP
Result string: 0.00489

Query string: Fill in shrunken log2 fold change for record RRIRMRPPRLPRPRPRPIINPRP
Result string: -0.0492

Query string: Answer with the recorded shrunken log2 fold change for the sequence listed here: RRIRFRPPRLPRPRPRPPCNPRP
Result string: -0.284
